The following are reported MIC results, target or system Escher. coli NIHJ.
The reply should be a number in µg/mL, with the unit left off.

Observe how each entry below is paired with its result.
CO[C@@]1(NC(=O)[C@H](NC(=O)c2c(C)oc3c(O)c(O)ccc3c2=O)c2ccc(OCC(=O)O)cc2)C(=O)N2C(C(=O)O)=C(CSc3nnnn3CC(=O)O)CS[C@@H]21
0.8
CC(=O)Oc1cc2oc(C)c(C(=O)N[C@@H](C(=O)N[C@@H]3C(=O)N4C(C(=O)O)=C(CSc5nnnn5CC(=O)O)CS[C@H]34)c3ccc(OCC(=O)O)cc3)c(=O)c2cc1OC(C)=O
0.2

Form: compound = `Cc1oc2c(O)c(O)ccc2c(=O)c1C(=O)N[C@@H](C(=O)N[C@@H]1C(=O)N2C(C(=O)O)=C(CSc3nnnn3CC(=O)O)CS[C@H]12)c1ccc(OCC(=O)O)cc1` ; MIC = 0.4

According to the records, this compound `O=C(O)COc1ccc([C@@H](NC(=O)c2coc3cc(O)c(O)cc3c2=O)C(=O)N[C@@H]2C(=O)N3C(C(=O)[O-])=C(C[n+]4ccccc4)CS[C@H]23)cc1` displays MIC of 0.8

Note to self: MIC recorded for `CC(=O)Oc1ccc2c(=O)c(C(=O)N[C@@H](C(=O)N[C@@H]3C(=O)N4C(C(=O)O)=C(CSc5nnnn5CC(=O)O)CS[C@H]34)c3ccc(OCC(=O)O)cc3)coc2c1OC(C)=O` was 0.8

The value of MIC measured for the compound `Cn1nnnc1SCC1=C(C(=O)O)N2C(=O)[C@@H](NC(=O)[C@H](NC(=O)c3coc4cc(O)c(O)cc4c3=O)c3ccc(OCC(=O)O)cc3)[C@H]2SC1` turned out to be 0.8

For `Cc1oc2cc(O)c(O)cc2c(=O)c1C(=O)N[C@@H](C(=O)N[C@@H]1C(=O)N2C(C(=O)[O-])=C(C[n+]3ccc(C(=O)O)cc3)CS[C@H]12)c1ccc(OCC(=O)O)cc1` the compound record lists MIC as 0.4

The reported value for `CO[C@@]1(NC(=O)[C@H](NC(=O)c2coc3cc(O)c(O)cc3c2=O)c2ccc(OCC(=O)O)cc2)C(=O)N2C(C(=O)O)=C(CSc3nnnn3CC(=O)O)CS[C@@H]21` in terms of MIC is 0.8

According to the records, this compound `CCn1cc(C(=O)N[C@@H](C(=O)N[C@@H]2C(=O)N3C(C(=O)[O-])=C(C[n+]4ccc(C(N)=O)cc4)CS[C@H]23)c2ccc(OCC(=O)O)cc2)c(=O)c2cc(O)c(O)cc21` displays MIC of 0.4

response.value for `O=C(O)COc1ccc([C@@H](NC(=O)c2coc3c(O)c(O)ccc3c2=O)C(=O)N[C@@H]2C(=O)N3C(C(=O)O)=C(CSc4nnnn4CC(=O)O)CS[C@H]23)cc1` (field: MIC) = 0.8

* * *

- Tested on: Pseud. aeruginosa EP-01
- Protocol Notes: Antibacterial activities (MIC), Pseud. aeruginosa EP-01
- Format: cell-based
- Condition Set: Pseudomonas aeruginosa, EP01
Readout: MIC (µg/mL)
Number in µg/mL, nothing else.

Before answering, review these 3 worked examples.
Cc1oc2cc(O)c(O)cc2c(=O)c1C(=O)N[C@@H](C(=O)N[C@@H]1C(=O)N2C(C(=O)[O-])=C(C[n+]3cccc(CC(=O)O)c3)CS[C@H]12)c1ccc(OCC(=O)O)cc1
0.1
CC(=O)OCC1=C(C(=O)O)N2C(=O)[C@@H](NC(=O)[C@H](NC(=O)c3coc4c(OC(C)=O)c(OC(C)=O)ccc4c3=O)c3ccc(OCC(=O)O)cc3)[C@H]2SC1
0.8
CCn1cc(C(=O)N[C@@H](C(=O)N[C@@H]2C(=O)N3C(C(=O)O)=C(CSc4nnnn4C)CS[C@H]23)c2ccc(OCC(=O)O)cc2)c(=O)c2cc(O)c(O)cc21
0.1

// recorded MIC for `Cc1oc2cc(O)c(O)cc2c(=O)c1C(=O)N[C@@H](C(=O)N[C@@H]1C(=O)N2C(C(=O)O)=C(CSc3nnnn3CC(=O)O)CS[C@H]12)c1ccc(OCC(=O)O)cc1` : 0.2

So, `CC(=O)OCC1=C(C(=O)O)N2C(=O)[C@@H](NC(=O)[C@H](NC(=O)c3c(C)oc4cc(O)c(O)cc4c3=O)c3ccc(OCC(=O)O)cc3)[C@H]2SC1` ? Its MIC was 0.2

Reported MIC of `CO[C@@]1(NC(=O)[C@H](NC(=O)c2coc3cc(O)c(O)cc3c2=O)c2ccc(OCC(=O)O)cc2)C(=O)N2C(C(=O)O)=C(CSc3nnnn3CC(=O)O)CS[C@@H]21` : 0.4

MIC for `CCn1cc(C(=O)N[C@@H](C(=O)N[C@@H]2C(=O)N3C(C(=O)O)=C(COC(C)=O)CS[C@H]23)c2ccc(OCC(=O)O)cc2)c(=O)c2cc(O)c(O)cc21` is 0.2

Reported MIC of `CCn1cc(C(=O)N[C@@H](C(=O)N[C@@H]2C(=O)N3C(C(=O)[O-])=C(C[n+]4ccc(C(N)=O)cc4)CS[C@H]23)c2ccc(OCC(=O)O)cc2)c(=O)c2cc(O)c(O)cc21` : 0.2

The measured MIC associated with `CC(=O)Oc1ccc2c(=O)c(C(=O)N[C@@H](C(=O)N[C@@H]3C(=O)N4C(C(=O)O)=C(CSc5nnnn5CC(=O)O)CS[C@H]34)c3ccc(OCC(=O)O)cc3)coc2c1OC(C)=O` reads 0.8

* * *

- Tested on: Staph. aureus 209-P
- Protocol Notes: Antibacterial activities (MIC), Staph. aureus 209-P
- Format: cell-based
- Condition Set: Staphylococcus aureus
Recorded MIC by entry

// worked examples, MIC included
Cc1oc2cc(O)c(O)cc2c(=O)c1C(=O)N[C@@H](C(=O)N[C@@H]1C(=O)N2C(C(=O)[O-])=C(C[n+]3ccc(C(N)=O)cc3)CS[C@H]12)c1ccc(OCC(=O)O)cc1 [Example 41]
50 µg/mL
CCOC(=O)Oc1cc2oc(C)c(C(=O)N[C@@H](C(=O)N[C@@H]3C(=O)N4C(C(=O)O)=C(COC(C)=O)CS[C@H]34)c3ccc(OCC(=O)O)cc3)c(=O)c2cc1OC(=O)OCC [Example 36]
25 µg/mL

Here is another compound to look at.
CO[C@@]1(NC(=O)[C@H](NC(=O)c2coc3cc(O)c(O)cc3c2=O)c2ccc(OCC(=O)O)cc2)C(=O)N2C(C(=O)[O-])=C(C[n+]3ccc(C(N)=O)cc3)CS[C@@H]21 [Example 51] yielded MIC of 50 µg/mL

* * *

- Protocol Notes: Urinary excretion rate in mice
- Type: in vivo, ICR male mice
- Condition Set: mouse, sc, 20 mg/kg subcutaneous, urine up to 6 hours, bioassay
Readout: dose excreted at 6 h (%)
All answers are understood in %, so give the number only.

In the examples that follow, each entry is paired with its recorded dose excreted at 6 h.
CO[C@@]1(NC(=O)[C@H](NC(=O)c2c(C)oc3cc(O)c(O)cc3c2=O)c2ccc(OCC(=O)O)cc2)C(=O)N2C(C(=O)[O-])=C(C[n+]3ccc(C(N)=O)cc3)CS[C@@H]21 [Example 49]
35
O=C(O)COc1ccc([C@@H](NC(=O)c2coc3cc(O)c(O)cc3c2=O)C(=O)N[C@@H]2C(=O)N3C(C(=O)[O-])=C(C[n+]4ccccc4)CS[C@H]23)cc1 [Example 44]
40
Cc1oc2cc(O)c(O)cc2c(=O)c1C(=O)N[C@@H](C(=O)N[C@@H]1C(=O)N2C(C(=O)[O-])=C(C[n+]3cccc(CC(=O)O)c3)CS[C@H]12)c1ccc(OCC(=O)O)cc1 [Example 43]
25

// moving on: another record for dose excreted at 6 h
For record O=C(O)COc1ccc([C@@H](NC(=O)c2coc3c(O)c(O)ccc3c2=O)C(=O)N[C@@H]2C(=O)N3C(C(=O)O)=C(CSc4nnnn4CC(=O)O)CS[C@H]23)cc1 [Example 20] the listed dose excreted at 6 h is 16

* * *

- Protocol Notes: Urinary excretion rate in mice
- Assay type: in vivo, ICR male mice
- Condition Set: mouse, sc, 20 mg/kg subcutaneous, urine up to 6 hours, bioassay
The reader will find reported dose excreted at 6 h values listed item by item below.
Provide the reading as a plain figure in %.

Cc1oc2cc(O)c(O)cc2c(=O)c1C(=O)N[C@@H](C(=O)N[C@@H]1C(=O)N2C(C(=O)O)=C(CSc3nnnn3CC(=O)O)CS[C@H]12)c1ccc(OCC(=O)O)cc1
32
CO[C@@]1(NC(=O)[C@H](NC(=O)c2c(C)oc3c(O)c(O)ccc3c2=O)c2ccc(OCC(=O)O)cc2)C(=O)N2C(C(=O)O)=C(CSc3nnnn3CC(=O)O)CS[C@@H]21
24

Now, please, on to the next compound.
What the record says about `O=C(O)COc1ccc([C@@H](NC(=O)c2coc3cc(O)c(O)cc3c2=O)C(=O)N[C@@H]2C(=O)N3C(C(=O)O)=C(CSc4nnnn4CC(=O)O)CS[C@H]23)cc1` : dose excreted at 6 h is 20
